src = patent US20250154198A1

Target: T1, Nluc-IL23R fusion protein (human, UniProt Q5VWK5 22-629)
T1 construct: range 22-629; Stably expressed in HEK293 cells; also called hIL-23R; human IL-23R fused to a Nanoluc luciferase enzyme; not shown: Nanoluc luciferase (Promega N1371 plasmid) at the N-terminus
T1 sequence (looked up): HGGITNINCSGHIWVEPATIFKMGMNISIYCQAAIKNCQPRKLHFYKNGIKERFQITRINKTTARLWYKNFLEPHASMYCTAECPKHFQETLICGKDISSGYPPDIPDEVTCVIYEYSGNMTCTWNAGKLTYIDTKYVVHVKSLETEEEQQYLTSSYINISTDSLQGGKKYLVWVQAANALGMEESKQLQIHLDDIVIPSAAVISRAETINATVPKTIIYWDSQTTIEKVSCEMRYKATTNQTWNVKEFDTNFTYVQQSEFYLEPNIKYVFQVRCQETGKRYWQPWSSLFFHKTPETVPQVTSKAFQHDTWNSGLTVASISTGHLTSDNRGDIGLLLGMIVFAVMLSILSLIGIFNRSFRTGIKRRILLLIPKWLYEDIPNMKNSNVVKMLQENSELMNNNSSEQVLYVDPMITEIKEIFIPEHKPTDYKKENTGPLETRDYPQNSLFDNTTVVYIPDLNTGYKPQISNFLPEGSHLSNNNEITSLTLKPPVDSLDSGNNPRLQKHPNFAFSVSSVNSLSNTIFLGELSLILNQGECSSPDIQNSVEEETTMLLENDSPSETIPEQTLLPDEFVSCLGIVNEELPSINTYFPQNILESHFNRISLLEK
Assay: BRET displacement of TAMRA-labelled peptide, Nluc-IL23R membranes
*1 amine or outer side, *2 acyl side, *3 side chain or, on linkers, in order; H or OH if unused. Bridges are numbered along the chain shown (N, C = ends). [ ]: non-standard residue; d: D form. 2Nal = N[C@@H](Cc1ccc2ccccc2c1)C(=O)O; αMeL = CC(C)C[C@](C)(N)C(=O)O; CH2COCH2 = O=C(C[*:1])C[*:2]
Ki values by entry
measured property: Ki

| binder | reported value |
| --- | --- |
| Ac-KSC[2Nal]QCW[2Nal]LER-NH2 (lactam 1-10; linker 3-6 via CH2COCH2; SMILES CC(=O)N[C@H]1CCCCNC(=O)CC[C@@H](C(=O)N[C@@H](CCCNC(=N)N)C(N)=O)NC(=O)[C@H](CC(C)C)NC(=O)[C@H](Cc2ccc3ccccc3c2)NC(=O)[C@H](Cc2c[nH]c3ccccc23)NC(=O)[C@@H]2CSCC(=O)CSC[C@H](NC(=O)[C@H](CO)NC1=O)C(=O)N[C@@H](Cc1ccc3ccccc3c1)C(=O)N[C@@H](CCC(N)=O)C(=O)N2) [Compound 25] | 185 nM |
| Ac-CTCWECWW[αMeL]CS-NH2 (linker 1-10, 3-6 via CH2COCH2; SMILES CC(=O)N[C@H]1CSCC(=O)CSC[C@@H](C(=O)N[C@@H](CO)C(N)=O)NC(=O)[C@](C)(CC(C)C)NC(=O)[C@H](Cc2c[nH]c3ccccc23)NC(=O)[C@H](Cc2c[nH]c3ccccc23)NC(=O)[C@@H]2CSCC(=O)CSC[C@H](NC(=O)[C@H]([C@@H](C)O)NC1=O)C(=O)N[C@@H](Cc1c[nH]c3ccccc13)C(=O)N[C@@H](CCC(=O)O)C(=O)N2) [Compound 33] | 189 nM |
